assayed_target: Neurogenic locus notch homolog protein 3 (Homo sapiens)
test_protocol: NOTCH3 binders on small-molecule microarray, primary screen, biochemical, 635/667 nm fluorescence (AID 1096)
experimental_conditions: NOTCH3 binding, 635 nm fluorescence, higher = more signal
Response field class: string, computed from recorded composite z-score by ranges LOW = under 0.3, MEDIUM = from 0.3 up to 1, HIGH = 1 and over

Look over these answered cases.
compound	classification
NC(=O)[C@@H]1[C@H]2C(=O)O[C@H](c3ccccc3)[C@H](c3ccccc3)N2[C@H](c2ccc(OCCO)cc2)[C@@]12C(=O)Nc1ccc(C#CCCO)cc12	LOW
NC(=O)[C@H]1[C@@H]2C(=O)O[C@@H](c3ccccc3)[C@@H](c3ccccc3)N2[C@@H](c2ccc(O)cc2)[C@]12C(=O)Nc1ccccc12	LOW
C=CCNC(=O)[C@@H]1[C@H]2C(=O)O[C@H](c3ccccc3)[C@H](c3ccccc3)N2[C@H](c2ccc(O)cc2)[C@@]12C(=O)Nc1ccc(C#CCC(C(=O)OC)C(=O)OC)cc12	MEDIUM

IN: Into which bin does this compound go? "C=C(CCCC)C(=O)CC[C@H](OC(C)=O)c1ccc(OCCO)cc1"
OUT: LOW

IN: The entry to classify is "Cc1ccc(F)cc1S(=O)(=O)N[C@@H]1CCN(Cc2cccc3[nH]ccc23)C1" ; which class holds it?
OUT: MEDIUM

IN: Which bin, given its composite z-score, does "[N-]=[N+]=NC[C@H](Cc1ccccc1)NC(=O)c1ccccc1" occupy?
OUT: LOW

IN: Dear colleague, I would appreciate it if you could identify the bin for "O=C1O[C@H](c2ccccc2)[C@H](c2ccccc2)N2[C@H]1[C@@H](C(=O)N1CCCCCCC1)[C@]1(C(=O)Nc3ccc(C#CC4(O)CCCCCC4)cc31)[C@H]2c1ccc(O)cc1" and reply at your convenience.
OUT: HIGH

IN: Hello team, could you let me know which band the following compound falls into: C=CCC(OC(C)=O)[C@@H]1[C@@H](N(Cc2cc3ccccc3o2)C(=O)c2ccc(-c3ccccc3)cc2)c2cc(OCCCO)ccc2N1C(=O)Cc1ccc(OC)cc1 (stereo partly drawn)
OUT: LOW

IN: Using the reported composite z-score, which band applies to CC(C)C[C@@H]1NC(=O)[C@@]23C(=O)N[C@@H](Cc4ccccc4)C2[C@H](C)[C@@]2(C)O[C@H]2C3/C=C/C/C=C\CNC(=O)[C@@H](C)NC1=O (stereo partly drawn) ?
OUT: LOW

IN: State the class of the compound shown: COc1cc(NN2C(C(O)c3ccc(I)cc3)C=CC3C(=O)N(c4ccccc4)C(=O)C32)cc(OC)c1OC (stereo not drawn)
OUT: HIGH

IN: Kindly state the category for this compound: "COC(=O)[C@@]1(Cc2ccccc2)[C@H]2c3cc(C(=O)N4CCCC4)n(CCSCCO)c3C[C@H]2CN1C(=O)c1ccccc1"
OUT: MEDIUM

IN: State the class of the compound shown: "COCCOC(=O)N1C(=O)[C@@]2(c3cc(C#Cc4ccc(OC)cc4)ccc31)[C@H](c1ccc(OCCO)cc1)N1[C@H](c3ccccc3)[C@H](c3ccccc3)OC(=O)[C@H]1[C@@H]2C(=O)Nc1nc2ccccc2s1"
OUT: MEDIUM

---

test_protocol: binders from COS7 lysate, DM2A8 probe, primary screen, torsin A project, cell lysate, small-molecule microarray, fluorescence 635/667 (AID 1065)
experimental_conditions: higher = more signal, COS7 lysate expressing mutant human TOR1A
Label TRUE when composite z-score is at or above -0.1; anything below gets FALSE.

molecule	classification
CCCCC=C[C@@H](NC(=O)c1ccccc1)c1ccccc1	TRUE
O=C1[C@@H]2[C@@H](CC(COc3ccccc3)=C3[C@@H](CCc4ccccc4)OB(O)C[C@@H]32)C(=O)N1Cc1ccccc1	TRUE
C=CCN1C(=O)[C@@]2(O[C@@H](CCO)[C@H]([Si](C)(C)c3ccc(OC)cc3)[C@H]2C)c2cc(N3CCOC3=O)ccc21	TRUE
CC(C)C(=C=CC[C@@H](O)c1cccc(OCCO)c1)C[C@@H](O)c1ccccn1	TRUE

IN: // inclusive: composite z-score at least -0.1? input: "Cc1ccc(N2C(=O)c3ccccc3[C@](C)(C(=O)NCc3ccccc3)[C@@H]2c2ccc(CO)cc2)nc1"
OUT: TRUE

---

test_protocol: adipocyte viability effects, profiling panel, cell-based, 3T3-L1 adipocytes, calcein-AM fluorescence, 48 h, basal (AID 1163); further: test concentration not given here
experimental_conditions: 3T3-L1 adipocytes viability, higher = more signal
Items are presented alongside their recorded z-score.
Quick one: just the number, no unit, thanks!

Solved cases below.
compound_structure	z-score
COCCOC(=O)N1C(=O)[C@@]2(c3ccccc31)[C@H](c1ccccc1OCCO)N1[C@H](c3ccccc3)[C@H](c3ccccc3)OC(=O)[C@H]1[C@@H]2C(=O)N1CCCCCCC1	1
C=C[C@@H](OC)[C@H](OC(=O)Nc1ccc(SC)cc1)c1ccc(OCCO)cc1	0.222
C=C(CCCC)C(=O)CC[C@H](OC(=O)c1ccccc1-c1ccccc1C(=O)O)c1ccccc1OCCO	1.1

IN: Tell us which z-score value is on record for "CN(C)C(=O)[C@@]1(CCC(=O)OC(C)(C)C)N=C(c2ccc(OCCCO)cc2)O[C@H]1c1ccccc1CN=[N+]=[N-]"
OUT: -0.607

---

test_protocol: CREB reporter modulators under forskolin, primary screen, cell-based, PC12, CRE-LacZ reporter, forskolin-stimulated (AID 1146);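 further: PC12 cells with 6xCRE LacZ reporter stimulated by forskolin 10 µM; beta-galactosidase reporter signal reflecting CREB driven transcription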
experimental_conditions: luminescence, 4.5 h, higher = more signal, called active from +8 up or from −8 down
quantity_measured: z-score
Response field accepts a number only; no unit should be typed.

compound	z-score
COc1ccc([Si](C)(C)[C@H]2[C@H](CCO)O[C@@]3(C(=O)N(Cc4ccccc4)c4ccc(N5C(=O)c6ccccc6Oc6ccccc65)cc43)[C@@H]2C)cc1	-0.328
COc1cc2c(cc1O)C(c1cccs1)N(Cc1sc3ccccc3c1Cl)CC2 (configuration not stated)	0.93
[N-]=[N+]=NCc1ccccc1C[C@@]1(C(=O)N2CCCCC2)N=C(c2ccc(OCCCO)cc2)O[C@@H]1c1ccccc1CN=[N+]=[N-]	0.872
CCOC(=O)C1=CC[C@@H](c2ccccc2)N(S(=O)(=O)c2ccc(C)cc2)[C@H]1C=Cc1ccccc1	0.521
O=C(O)[C@H]1C[C@H]2C(=O)N[C@@H](Cc3ccccc3)C(=O)N2[C@H]1c1cccc(OCCO)c1	-0.178

IN: Tell us which z-score value is on record for "CN1C(=O)[C@@H]2[C@@H](CC(COc3ccccc3)=C([C@H](O)CCc3ccccc3)[C@@H]2CO)C1=O"
OUT: -1.18

IN: # return recorded z-score for entry "[N-]=[N+]=Nc1ccccc1C[C@]1(C(=O)O)N=C(c2ccc(OCCCO)cc2)O[C@H]1c1ccccc1N=[N+]=[N-]"
OUT: -1.65

---

This section presents molecules with their documented z-score values.
test_protocol: adipocyte viability effects, profiling panel, cell-based, 3T3-L1 adipocytes, calcein-AM fluorescence, 48 h, basal (AID 1163); further: test concentration not given here
experimental_conditions: 3T3-L1 adipocytes viability, higher = more signal
Reply with just the number.

Guide cases for z-score, answers given:
molecule	z-score
Cc1ccc([C@H]2C(C(=O)O)=C[C@@H](C(C)(C)C)N2S(=O)(=O)c2ccc(C)cc2)cc1	-0.85
COC(=O)[C@@]1(Cc2ccc(F)cc2)[C@H]2c3cc(C(=O)N(C)C)n(Cc4c(CO)[nH]cc(C)c4=O)c3C[C@H]2CN1C(=O)c1ccccc1	0.837
CN1C(=O)C2C=CC(C(O)c3cc(C(F)(F)F)cc(C(F)(F)F)c3)N(NC(=O)OC(C)(C)C)C2C1=O (centres undefined)	-0.122

Then there is this molecule:
IN: Report z-score, nothing else, for this molecule: "O=C1C[C@@](C(=O)NCc2ccccc2)(c2ccc([N+](=O)[O-])cc2)[C@@H](c2ccc(CO)cc2I)N1CC12CC3CC(CC(C3)C1)C2"
OUT: 0.684

---

Property: z-score; scope: individual molecules
test_protocol: inhibitors of hydroxyurea-induced Chk1 phosphorylation, primary screen, imaging, HeLa, phospho-Chk1 nuclear intensity (AID 1187); further: test concentration not given here
experimental_conditions: hydroxyurea-induced phospho-Chk1 immunofluorescence imaging, higher = more signal
I'd appreciate a reply containing only the number, no unit.

molecule	z-score
O=C1O[C@H](c2ccccc2)[C@H](c2ccccc2)N2[C@H]1[C@@H](C(=O)Nc1nc3ccccc3s1)[C@]1(C(=O)Nc3ccc(C#CC4=CCCCC4)cc31)[C@H]2c1ccc(O)cc1	-0.749

IN: Dear colleague, please send me the reported z-score for "O=C(N1CCOCC1)[C@@]1(CCS(=O)(=O)c2ccccc2)N=C(c2ccc(OCCCO)cc2)O[C@H]1c1ccccc1" when you can.
OUT: 0.249

IN: # return recorded z-score for input C=CCC(OC(C)=O)[C@@H]1[C@@H](N(Cc2cccc3ccccc23)C(=O)c2ccc(-c3ccccc3)cc2)c2cc(OCCCO)ccc2N1C(=O)c1ccc(-c2ccccc2)cc1 (some centres not stated)
OUT: 0.0424

IN: State, in one line, measured z-score of "CN(C)CCCCCCNC(=O)[C@@H]1C[C@@H]2C(=O)N[C@@H](CCCCN)C(=O)N2[C@@H]1c1ccc(O)cc1"
OUT: 0.481

IN: State, in one line, measured z-score of "COCCCNC(=O)[C@@H]1c2ccccc2C(=O)N(C2Cc3ccccc3C2)[C@H]1c1ccc(CO)cc1"
OUT: -0.726

IN: Write down z-score measured for item "COC(=O)[C@@]1(Cc2ccc(F)cc2)[C@H]2c3cc(C(=O)N4CCCC4)n(CC4CC4)c3C[C@H]2CN1C(=O)c1ccccc1"
OUT: 0.0021
